test system: K24384-001-R-PDC complex spheroid growth; test: Anticancer human tumor K24384-001-R-PDC patient-derived pancreatic adenocarcinoma cell line growth inhibition [AhR]; settings: second compound 3.16 µM; first compound 0.3 µM; hits give low values
Listing of recorded viability, T/C by entry.

Answered cases to consult:
>  <COMPOUND>
CCc1c2c(nc3ccc(O)cc13)-c1cc3c(c(=O)n1C2)COC(=O)[C@]3(O)CC + Cc1ccccc1N=Nc1ccc(NC(=O)c2ccnn2C)c(C)c1

>  <RECORDED_METRIC>
viability, T/C

>  <OBSERVED_RESULT>
30%

$$$$
>  <COMPOUND>
CCN(c1cc(-c2ccc(CN3CCOCC3)cc2)cc(C(=O)NCc2c(C)cc(C)[nH]c2=O)c1C)C1CCOCC1 + Cc1cncc(-c2nc(NCCc3c[nH]c4ccccc34)c3ncn(C(C)C)c3n2)c1

>  <RECORDED_METRIC>
viability, T/C

>  <OBSERVED_RESULT>
113%

$$$$

The compound identified as CC(C)CC(NC(=O)C(Cc1ccccc1)NC(=O)c1cnccn1)B(O)O (stereo not drawn) + Cc1cncc(-c2nc(NCCc3c[nH]c4ccccc34)c3ncn(C(C)C)c3n2)c1 registered its viability, T/C at 0.22%

---

test system: K24384-001-R-PDC complex spheroid growth; test: Anticancer human tumor K24384-001-R-PDC cell line growth inhibition [AhR]; conditions: second compound 1 µM; first compound 0.1 µM; hits give low values;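 note: percent of DMSO vehicle-treated spheroid viability set as 100%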
RECORDED_METRIC: viability, T/C (%)
Write the answer as a number in %, unit excluded.

>  <COMPOUND>
CC1(C)CCC(CN2CCN(c3ccc(C(=O)NS(=O)(=O)c4ccc(NCC5CCOCC5)c([N+](=O)[O-])c4)c(Oc4cnc5[nH]ccc5c4)c3)CC2)=C(c2ccc(Cl)cc2)C1 + Cc1ccccc1N=Nc1ccc(NC(=O)c2ccnn2C)c(C)c1

>  <UNIT_ABBREVIATION>
%

>  <viability, T/C>
102

$$$$
>  <COMPOUND>
O=C(c1cc(Cc2n[nH]c(=O)c3ccccc23)ccc1F)N1CCN(C(=O)C2CC2)CC1 + CC(CO)NC(=O)c1cc(-c2ccc(Cl)cc2)nn(-c2cnn(C)c2)c1=O

>  <UNIT_ABBREVIATION>
%

>  <viability, T/C>
104

$$$$

Lab note: next compound to report on.
The compound identified as CC[C@@]1(O)C(=O)OCc2c1cc1n(c2=O)Cc2cc3c(CN(C)C)c(O)ccc3nc2-1 + Cc1ccccc1N=Nc1ccc(NC(=O)c2ccnn2C)c(C)c1 registered its viability, T/C at 38.4

---

Listing of recorded viability, T/C by entry.
system: K24384-001-R-PDC complex spheroid growth; assay: Anticancer human tumor K24384-001-R-PDC cell line growth inhibition [AhR]; conditions: second compound 3.16 µM; first compound 0.0316 µM; hits give low values;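 note: percent of DMSO vehicle-treated spheroid viability set as 100%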
Write the answer as a number in %, unit excluded.

Answered cases to consult:
>  <COMPOUND>
Nc1ncn(C2CC(O)C(CO)O2)c(=O)n1 (stereo unspecified) + Cc1cncc(-c2nc(NCCc3c[nH]c4ccccc34)c3ncn(C(C)C)c3n2)c1

>  <UNIT_ABBREVIATION>
%

>  <viability, T/C>
87.8

$$$$
>  <COMPOUND>
Nc1ccccc1NC(=O)c1ccc(CNC(=O)OCc2cccnc2)cc1 + Cc1ccccc1N=Nc1ccc(NC(=O)c2ccnn2C)c(C)c1

>  <UNIT_ABBREVIATION>
%

>  <viability, T/C>
85.9

$$$$
>  <COMPOUND>
O=C(c1cc(Cc2n[nH]c(=O)c3ccccc23)ccc1F)N1CCN(C(=O)C2CC2)CC1 + CC(CO)NC(=O)c1cc(-c2ccc(Cl)cc2)nn(-c2cnn(C)c2)c1=O

>  <UNIT_ABBREVIATION>
%

>  <viability, T/C>
90.6

$$$$
>  <COMPOUND>
COc1cc(C2c3cc4c(cc3C(OC3OC5COC(C)OC5C(O)C3O)C3COC(=O)C23)OCO4)cc(OC)c1O (stereo unspecified) + Cc1cncc(-c2nc(NCCc3c[nH]c4ccccc34)c3ncn(C(C)C)c3n2)c1

>  <UNIT_ABBREVIATION>
%

>  <viability, T/C>
105

$$$$
>  <COMPOUND>
Nc1ncn(C2CC(O)C(CO)O2)c(=O)n1 (stereo unspecified) + CC(CO)NC(=O)c1cc(-c2ccc(Cl)cc2)nn(-c2cnn(C)c2)c1=O

>  <UNIT_ABBREVIATION>
%

>  <viability, T/C>
81.3

$$$$

The compound identified as COc1cc(C2c3cc4c(cc3C(OC3OC5COC(C)OC5C(O)C3O)C3COC(=O)C23)OCO4)cc(OC)c1O (stereo unspecified) + Cc1ccccc1N=Nc1ccc(NC(=O)c2ccnn2C)c(C)c1 registered its viability, T/C at 78.3

---

system: K24384-001-R-PDC complex spheroid growth; experiment: Anticancer human tumor K24384-001-R-PDC cell line growth inhibition [AhR]; conditions: second compound 0.316 µM; first compound 10 µM; hits give low values;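 note: percent of DMSO vehicle-treated spheroid viability set as 100%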
Listing of recorded viability, T/C by entry.
Write the answer as a number in %, unit excluded.

>  <COMPOUND>
CC1(C)CCC(CN2CCN(c3ccc(C(=O)NS(=O)(=O)c4ccc(NCC5CCOCC5)c([N+](=O)[O-])c4)c(Oc4cnc5[nH]ccc5c4)c3)CC2)=C(c2ccc(Cl)cc2)C1 + Cc1cncc(-c2nc(NCCc3c[nH]c4ccccc34)c3ncn(C(C)C)c3n2)c1

>  <viability, T/C, %>
18.6

$$$$
>  <COMPOUND>
COc1ccc([C@@H](O)c2cc(-c3ncnc4cc(N5CCOCC5)ccc34)c(F)cc2Cl)nn1 + Cc1cncc(-c2nc(NCCc3c[nH]c4ccccc34)c3ncn(C(C)C)c3n2)c1

>  <viability, T/C, %>
36.6

$$$$
>  <COMPOUND>
COc1ccc([C@@H](O)c2cc(-c3ncnc4cc(N5CCOCC5)ccc34)c(F)cc2Cl)nn1 + CC(CO)NC(=O)c1cc(-c2ccc(Cl)cc2)nn(-c2cnn(C)c2)c1=O

>  <viability, T/C, %>
37

$$$$
>  <COMPOUND>
Nc1ccn(C2OC(CO)C(O)C2(F)F)c(=O)n1 (stereo not given) + Cc1ccccc1N=Nc1ccc(NC(=O)c2ccnn2C)c(C)c1

>  <viability, T/C, %>
19.7

$$$$

Lab note: next compound to report on.
The compound identified as CC(C)c1c(-c2ccccc2)nc2c(C#N)c[nH]n2c1=O + Cc1cncc(-c2nc(NCCc3c[nH]c4ccccc34)c3ncn(C(C)C)c3n2)c1 registered its viability, T/C at 77.3

---

Tested on: K24384-001-R-PDC complex spheroid growth
Assay: Anticancer human tumor K24384-001-R-PDC cell line growth inhibition [AhR]; active = viability on the fitted dose curve at most 10% of control; inactive = the rest;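 note: percent of DMSO vehicle-treated spheroid viability set as 100%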
Details: second compound 0.316 µM; first compound 10 µM
Description: Multicellular complex tumor spheroid response to aryl hydrocarbon receptor antagonists in combination with a variety of drugs and investigational agents in selected tumor cell lines […] Compounds. […] If the clinical Cmax for an agent had not been determined, the highest concentration tested was 10 microM (Table 1). […]
Write down the outcome that applies. Available outcomes: active, inactive

Use the examples below as a reference point.
>  <COMPOUND>
NS(=O)(=O)OCC1CC(n2ccc3c(NC4CCc5ccccc54)ncnc32)CC1O (configuration not stated) + CC(CO)NC(=O)c1cc(-c2ccc(Cl)cc2)nn(-c2cnn(C)c2)c1=O

>  <ASSIGNED_LABEL>
inactive

$$$$
>  <COMPOUND>
COc1cc(Nc2ncc3c(n2)-c2ccc(Cl)cc2C(c2c(F)cccc2OC)=NC3)ccc1C(=O)O + Cc1ccccc1N=Nc1ccc(NC(=O)c2ccnn2C)c(C)c1

>  <ASSIGNED_LABEL>
inactive

$$$$
>  <COMPOUND>
O=C(C=Cc1cccc(S(=O)(=O)Nc2ccccc2)c1)NO + Cc1ccccc1N=Nc1ccc(NC(=O)c2ccnn2C)c(C)c1

>  <ASSIGNED_LABEL>
active

$$$$
>  <COMPOUND>
COc1cc(Nc2ncc3c(n2)-c2ccc(Cl)cc2C(c2c(F)cccc2OC)=NC3)ccc1C(=O)O + CC(CO)NC(=O)c1cc(-c2ccc(Cl)cc2)nn(-c2cnn(C)c2)c1=O

>  <ASSIGNED_LABEL>
inactive

$$$$
>  <COMPOUND>
COc1cccc2c1C(=O)c1c(O)c3c(c(O)c1C2=O)CC(O)(C(=O)CO)CC3OC1CC(N)C(O)C(C)O1 (configuration not stated) + Cc1cncc(-c2nc(NCCc3c[nH]c4ccccc34)c3ncn(C(C)C)c3n2)c1

>  <ASSIGNED_LABEL>
active

$$$$

Input: Name the outcome recorded for O=C(c1cc(Cc2n[nH]c(=O)c3ccccc23)ccc1F)N1CCN(C(=O)C2CC2)CC1 + CC(CO)NC(=O)c1cc(-c2ccc(Cl)cc2)nn(-c2cnn(C)c2)c1=O in the assay.
Output: inactive

Input: Name the outcome recorded for COc1cc(Nc2ncc3c(n2)-c2ccc(Cl)cc2C(c2c(F)cccc2OC)=NC3)ccc1C(=O)O + Cc1cncc(-c2nc(NCCc3c[nH]c4ccccc34)c3ncn(C(C)C)c3n2)c1 in the assay.
Output: inactive
